Sourced from patent US20220204611A1

- test.system: T1, human TREM2 (human, UniProt Q9NZC2 19-174, limits assumed)
- T1 sequence: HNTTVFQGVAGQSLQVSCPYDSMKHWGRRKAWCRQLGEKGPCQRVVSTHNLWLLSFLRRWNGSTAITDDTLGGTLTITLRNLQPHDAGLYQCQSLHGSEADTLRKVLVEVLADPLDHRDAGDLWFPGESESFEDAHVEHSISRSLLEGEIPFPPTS
- method.summary: yeast-displayed Fab FACS, 2nd screen 2 nM

{"binder": "V14 (Fab, V domains shown) VH: EVQLVQSGAEVKKPGESLKISCKGSGYSFGSYWIAWVRQMPGKGLEWMGIIYPGDQDTRYSPSFQGQVTISADKSISTAYLQWSSLKASDTAMYFCARGRTFYYDSSDYFDYWGQGTLVTVSS VL: DIQMTQSPSSVSASVGDRVTITCRASQGISSWLAWYQQKPGKAPKLLIYAASRLQNGVPSRFSGSGSGTDFTLTISSLQPEDFATYFCQQADSFPRTFGQGTKLEIK", "unit.name": "fold", "binding signal fold over 6E7 parental": 2.57}
{"binder": "V37 (Fab, V domains shown) VH: EVQLVQSGAEVKKPGESLKISCKGSGYSHTSYWIAWVRQMPGKGLEWMGIIYPGDSDTRYSPSFAGQVTISADKSISTAYLQWSSLKASDTAMYFCARSRTFYYDSSDYFDYWGQGTLVTVSS VL: DIQMTQSPSSVSASVGDRVTITCRASQGISSWLAWYQQKPGKAPKLLIYAASSLQWGVPSRFSGSGSGTDFTLTISSLQPEDFATYFCQQADSYPRTFGQGTKLEIK", "unit.name": "fold", "binding signal fold over 6E7 parental": 3.69}
{"binder": "V76 (Fab, V domains shown) VH: EVQLVQSGAEVKKPGESLKISCKGSGYSFGSYWIAWVRQMPGKGLEWMGIIYPGDSDTRYSPEFQGQVTISADKSISTAYLQWSSLKASDTAMYFCARQRTFYYDSSDYSDYWGQGTLVTVSS VL: DIQMTQSPSSVSASVGDRVTITCRASQGISSWLAWYQQKPGKAPKLLIYAASSLQKGVPSRFSGSGSGRDFTLTISSLQPEDFATYFCQQADSFPRTFGQGTKLEIK", "unit.name": "fold", "binding signal fold over 6E7 parental": 4.34}
{"binder": "V3 (Fab, V domains shown) VH: EVQLVQSGAEVKKPGESLKISCKGSGYSFASYWIAWVRQMPGKGLEWMGIIYPGDSDTRYSPSFQDQVTISADKSISTAYLQWSSLKASDTAMYFCARGRTFYYDSSDYFDYWGQGTLVTVSS VL: DIQMTQSPSSVSASVGDRVTITCRASQGISSWLAWYQQKPGKAPKLLIYAASSRQNGVPSRFSGSGSGTDFTLTISSLQPEDFATYFCQQADRFPRTFGQGTKLEIK", "unit.name": "fold", "binding signal fold over 6E7 parental": 1.95}
{"binder": "V75 (Fab, V domains shown) VH: EVQLVQSGAEVKKPGESLKISCKGSGYSFTSYWIAWVRQMPGKGLEWMGIIYPGDSDTRYSPSFQGQVTISADKSISTAYLQWSSLKASDTAMYFCARGRTFYYDSSDYFDYWGQGTLVTVSS VL: DIQMTQSPSSVSASVGDRVTITCRASQGISSWLAWYQQKPGKAPKLLIYAASSLQAGVPSRFSGSGSGTDFTLTISSLQPEDFATYFCQQADSYPRTFGQGTKLEIK", "unit.name": "fold", "binding signal fold over 6E7 parental": 3.74}
{"binder": "V63 (Fab, V domains shown) VH: EVQLVQSGAEVKKPGESLKISCKGSGYSFRSYWIAWVRQMPGKGLEWMGIIYPGDSDTRYSPSFQGQVTISADKSISTAYLQWSSLKASDTAMYFCARSRTFYYDSSDYFDYWGQGTLVTVSS VL: DIQMTQSPSSVSASVGDRVTITCRASQGISSWLAWYQQKPGKAPKLLIYAASSLQRGVPSRFSGSGSGTDFTLTISSLQPEDFATYFCQQADRFPRTFGQGTKLEIK", "unit.name": "fold", "binding signal fold over 6E7 parental": 4.91}
{"binder": "V49 (Fab, V domains shown) VH: EVQLVQSGAEVKKPGESLKISCKGSGYSFNSYWIAWVRQMPGKGLEWMGTIYPGDSDTRLSPSFQGQVTISADKSISTAYLQWSSLKASDTAMYFCARSRTFYYDSSDYFDYWGQGTLVTVSS VL: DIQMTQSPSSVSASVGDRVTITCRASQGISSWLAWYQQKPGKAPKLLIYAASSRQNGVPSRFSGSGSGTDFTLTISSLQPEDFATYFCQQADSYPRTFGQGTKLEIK", "unit.name": "fold", "binding signal fold over 6E7 parental": 5.02}
{"binder": "V15 (Fab, V domains shown) VH: EVQLVQSGAEVKKPGESLKISCKGSGYSFASYWIAWVRQMPGKGLEWMGTIYPGDSDTRYSPSFQGQVTISADKSISTAYLQWSSLKASDTAMYFCARSRTFYYDSSDYFDYWGQGTLVTVSS VL: DIQMTQSPSSVSASVGDRVTITCRASQGISSWLAWYQQKPGKAPKLLIYAASWLQNGVPSRFSGSGSGTDFTLTISSLQPEDFATYFCQQADSYPRTFGQGTKLEIK", "unit.name": "fold", "binding signal fold over 6E7 parental": 4.72}
{"binder": "V73 (Fab, V domains shown) VH: EVQLVQSGAEVKKPGESLKISCKGSGYSFGSYWIAWVRQMPGKGLEWMGIIYPGDSDTRYSPGFQGQVTISADKSISTAYLQWSSLKASDTAMYFCARGRTFYYDSSDYFDYWGQGTLVTVSS VL: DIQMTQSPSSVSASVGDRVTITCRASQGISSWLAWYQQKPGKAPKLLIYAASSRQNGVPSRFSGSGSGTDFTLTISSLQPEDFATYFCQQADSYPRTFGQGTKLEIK", "unit.name": "fold", "binding signal fold over 6E7 parental": 4.17}
{"binder": "V77 (Fab, V domains shown) VH: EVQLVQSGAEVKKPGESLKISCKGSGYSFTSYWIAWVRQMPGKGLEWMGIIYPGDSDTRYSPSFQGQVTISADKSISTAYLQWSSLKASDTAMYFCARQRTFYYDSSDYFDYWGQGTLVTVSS VL: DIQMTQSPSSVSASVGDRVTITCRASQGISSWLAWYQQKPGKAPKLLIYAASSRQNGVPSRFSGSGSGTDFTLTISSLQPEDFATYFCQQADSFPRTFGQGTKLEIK", "unit.name": "fold", "binding signal fold over 6E7 parental": 0.83}
